- Test system: MDA-MB-435
- TEST: NCI tumour cell line growth inhibition, 48 h
QUANTITY_KIND: TGI

# count of solved cases: 2
[O-][n+]1onc2c1/C(=N/O)CCC2: > 100 µM
COC1CC(NC(=O)C(F)(F)F)C(OC(C)=O)C(C)O1 (stereo not drawn): > 100 µM

# evaluate next
Challenge: Requested read-out: TGI. Entry: CCCCN(CCCC)CCCn1c(=O)c2c3ccccc3n(C)c2n2nnc(-c3ccccc3)c12
Response given: > 100 µM

###

- System: UACC-257 melanoma
- TEST: NCI tumour cell line growth inhibition, 48 h
QUANTITY_KIND: TGI

Solved entries (count: 5):
CC(C)(C)OC(=O)NC1CCC(C(C)(C)C)CC1 (stereo not drawn): > 61.8 µM
Cc1ccc(/C=C2\Cc3cccc(C)c3C2=O)c(C(=O)O)c1: > 100 µM
O=C(CCC(C(=O)c1ccccc1)c1ccccc1)c1ccccc1 (stereo not drawn): > 100 µM
O=C1OC(c2ccccc2)(c2cc(Br)c(O)c(Br)c2)c2ccccc21 (stereo not drawn): > 100 µM
C=CCNS(=O)(=O)c1ncnc2nc[nH]c12: > 100 µM

Challenge: Return TGI measured with UACC-257 melanoma given this compound: O=C1c2ccccc2-c2c1c1c(O)cccc1n2-c1ccccc1
Response given: > 100 µM

Challenge: Lab note: need TGI with UACC-257 melanoma for entry CCCCCCc1nc2nc(Cl)c(Cl)nc2[nH]1 , please look it up.
Response given: > 100 µM

Challenge: Param readout = TGI; param system = UACC-257 melanoma; param query = CN(C)/C=N/NC(=O)/C(C#N)=C/N(C)C ; response: value
Response given: > 100 µM
